readoutLabel: IC50 (nM)
Write down the numeric answer in nM and omit the unit.

Case "CCCc1nn(C)c2c(=O)[nH]c(-c3cc(S(=O)(=O)N4CCN(C)CC4)ccc3OCC)nc12" , PDE5 (Mus musculus), IC50 recorded as 6.8

Case "COc1cc(OC)c2c(=O)cc(-c3ccccc3)oc2c1" , PDE5 (Mus musculus), IC50 recorded as 10600

Case "OCCN(CCO)c1nc(N2CCCCC2)c2nc(N(CCO)CCO)nc(N3CCCCC3)c2n1" , PDE5 (Mus musculus), IC50 recorded as 1460

* * *

Record type: pIC50 measurement. Applies to: PDE6 (Gallus gallus, UniProt P52731)
# pIC50 is unitless: minus log10 of the molar concentration; print number only

Case "OCCN(CCO)c1nc(N2CCCCC2)c2nc(N(CCO)CCO)nc(N3CCCCC3)c2n1" , PDE6 (Gallus gallus, UniProt P52731), pIC50 recorded as 6.64

Case "CCCc1nn(C)c2c(=O)[nH]c(-c3cc(S(=O)(=O)N4CCN(C)CC4)ccc3OCC)nc12" , PDE6 (Gallus gallus, UniProt P52731), pIC50 recorded as 7.48

Case "COc1cc(OC)c2c(=O)cc(-c3ccccc3)oc2c1" , PDE6 (Gallus gallus, UniProt P52731), pIC50 recorded as 4.40
